Data credit: patent US7763605B2

- TESTED_ON: human V2 receptor (Homo sapiens, UniProt P30518)
- Construct: expressed in transfected cells; host or cells: HEK-293
- Sequence (P30518 whole entry): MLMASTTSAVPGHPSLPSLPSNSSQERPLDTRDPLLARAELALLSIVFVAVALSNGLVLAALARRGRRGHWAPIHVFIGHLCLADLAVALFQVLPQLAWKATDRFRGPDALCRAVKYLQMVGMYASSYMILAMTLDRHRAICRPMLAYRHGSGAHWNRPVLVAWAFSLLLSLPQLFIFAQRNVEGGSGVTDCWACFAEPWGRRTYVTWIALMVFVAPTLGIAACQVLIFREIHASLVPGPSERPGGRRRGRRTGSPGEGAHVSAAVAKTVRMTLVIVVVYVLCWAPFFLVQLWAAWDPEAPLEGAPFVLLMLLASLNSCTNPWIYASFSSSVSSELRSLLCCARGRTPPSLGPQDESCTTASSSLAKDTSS
- ASSAY_PROTOCOL: In vitro recombinant vasopressin receptor binding assay (3H-arginine vasopressin displacement), V2
- CONDITION_SET: cloned human receptor membranes from HEK-293 cells
RESULT_TYPE: IC50 (µM)

These recorded examples may help you get a feel for the data.
{"columns": ["COMPOUND", "IC50 [µM]"],
 "data": [
  ["CS(=O)(=O)OC[C@@H]1CN(C(=O)c2ccc(NC(=O)c3ccccc3-c3ccccc3)cc2Cl)c2ccccc2CN1S(C)(=O)=O", 0.4],
  ["CSC[C@@H]1CN(C(=O)c2ccc(NC(=O)c3ccccc3-c3ccccc3)cc2Cl)c2ccccc2CN1C", 0.24]
]}

[A] CCCS(=O)(=O)N1Cc2ccccc2N(C(=O)c2ccc(NC(=O)c3ccccc3-c3ccccc3)cc2Cl)C[C@H]1CO
[B] CN1Cc2ccccc2N(C(=O)c2ccc(NC(=O)c3ccccc3-c3ccccc3)cc2Cl)C[C@@H]1CN1CCCC1 [Cpd 3, ditrifluoroacetate]
[C] O=C(Nc1ccc(C(=O)N2C[C@@H](CO)N(S(=O)(=O)c3ccccc3)Cc3ccccc32)c(Cl)c1)c1ccccc1-c1ccccc1
[D] CC(=O)OC[C@@H]1CN(C(=O)c2ccc(NC(=O)c3ccccc3-c3ccccc3)cc2Cl)c2ccccc2CN1C(C)=O
Prompt: Place the items in sequence of falling IC50. Sort and list the labels as requested.
Completion: B, C, A, D

---

- TESTED_ON: human V2 receptor (Homo sapiens, UniProt P30518)
- Construct: expressed in transfected cells; host or cells: HEK-293
- ASSAY_PROTOCOL: Inhibition of AVP-induced cAMP accumulation in transfected HEK-293 cells expressing human V2 receptor
- Assay type: cell-based
- CONDITION_SET: AVP 1 nM, HEK-293 expressing human V2, read-out: Functional V2 (IC50; μM)
Where a name gives a salt, the structure may show the parent alone.
RESULT_TYPE: IC50 (µM)

[A] CN1Cc2ccccc2N(C(=O)c2ccc(NC(=O)c3ccccc3-c3ccccc3)cc2Cl)C[C@@H]1CN1CCCC1 [Cpd 3, ditrifluoroacetate]
[B] CS(=O)(=O)N1Cc2ccccc2N(C(=O)c2ccc(NC(=O)c3ccccc3-c3ccccc3)cc2Cl)C[C@H]1CO
Prompt: Please let me know which one, A or B , has a lower measured IC50 value. Respond using the label that marks the chosen record.
Completion: B
(B: 0.02 µM, A: 0.71 µM)

[P] CC(=O)N1Cc2ccccc2N(C(=O)c2ccc(NC(=O)c3ccccc3-c3ccccc3)cc2Cl)C[C@H]1CO
[Q] CS(=O)(=O)OC[C@@H]1CN(C(=O)c2ccc(NC(=O)c3ccccc3-c3ccccc3)cc2Cl)c2ccccc2CN1S(C)(=O)=O
Prompt: For the two items P and Q , which reports the higher IC50 value? Respond using the label that marks the chosen record.
Completion: Q

[I] COC[C@@H]1CN(C(=O)c2ccc(NC(=O)c3ccccc3-c3ccccc3)cc2Cl)c2ccccc2CN1C [Cpd 6, trifluoroacetate]
[II] O=C(Nc1ccc(C(=O)N2C[C@@H](CO)N(S(=O)(=O)c3ccccc3)Cc3ccccc32)c(Cl)c1)c1ccccc1-c1ccccc1
[III] CC(=O)OC[C@@H]1CN(C(=O)c2ccc(NC(=O)c3ccccc3-c3ccccc3)cc2Cl)c2ccccc2CN1C(C)=O
Prompt: Place the items in sequence of falling IC50. Sort and list the labels as requested.
Completion: II, III, I
(II: 0.773 µM, III: 0.04 µM, I: 0.025 µM)

[I] CCCS(=O)(=O)N1Cc2ccccc2N(C(=O)c2ccc(NC(=O)c3ccccc3-c3ccccc3)cc2Cl)C[C@H]1CO
[II] CSC[C@@H]1CN(C(=O)c2ccc(NC(=O)c3ccccc3-c3ccccc3)cc2Cl)c2ccccc2CN1C
Prompt: Please let me know which one, I or II , has a lower measured IC50 value. Respond using the label that marks the chosen record.
Completion: I
